- ASSAY COMMENT: melting temperature; fluorescence melt of hairpins on a sequencing array, two-state fit, raised by 9.35 °C to match UV melts
- STUDY CONDITIONS: sodium 0.088 M
Rule: measured Tm below 50 °C gets label 1; anything equal to or greater than 50 °C gets label 0.

Tm under 50 °C? Item: GCCGAACCGAAAGGTGGC (((..(((....)))))) label 0

Tm under 50 °C? Item: GATCAGAGGACTGATC ((((((....)))))) label 1

Tm under 50 °C? Item: GATCCTTGGGAGGATC ((((((....)))))) label 0

Tm under 50 °C? Item: GCGTTTGGAAACAAACAC (.(((((....))))).) label 1

Tm under 50 °C? Item: GGTCCACGAAAGTGACC (((.(((....)))))) label 0

Tm under 50 °C? Item: GCGTTCGAAAGAAACCGC ((((((....)))..))) label 1

Tm under 50 °C? Item: GCAAACGAAAGTTTCTGC ((((((....)))..))) label 1

Tm under 50 °C? Item: GCACGAGGAAACTCGTAC (.(((((....))))).) label 1

Tm under 50 °C? Item: GATCATATGAATGATC ((((((....)))))) label 1

Tm under 50 °C? Item: GCGAGAGGAAACTCTCAC (.(((((....))))).) label 1

Tm under 50 °C? Item: GTTTACCGAAAGGTCAAC (((.(((....))).))) label 1

Tm under 50 °C? Item: GCATGTGAAAACATGC ((((((....)))))) label 0

Tm under 50 °C? Item: GATCCCGGGGGGATC ((((((...)))))) label 0

Tm under 50 °C? Item: GATCGCTTGGCGATC ((((((...)))))) label 0

Tm under 50 °C? Item: GCATAGCGAAAGCGACGC ((.(.((....)).).)) label 0

Tm under 50 °C? Item: GGCCACCCGAAAGGGGCC (((..(((....)))))) label 0

Tm under 50 °C? Item: GATCTGATCGCAGATC ((((((....)))))) label 1

Tm under 50 °C? Item: GACCTGAAAAGGTC (((((....))))) label 0

Tm under 50 °C? Item: GACAGAGGAAACTCTGCC (.(((((....))))).) label 1

Tm under 50 °C? Item: GCTCCCCGAAAGGGCAGC (((.(((....))).))) label 1

Tm under 50 °C? Item: ACCATGAAAATGGT (((((....))))) label 1

Tm under 50 °C? Item: GCGGAACCCGC ((((...)))) label 0

Tm under 50 °C? Item: GTGGGCGAAAGCCGTCAC ((((((....)))..))) label 1

Tm under 50 °C? Item: GTTAGTGCGAAAGCAAAC (((..(((....)))))) label 1

Tm under 50 °C? Item: GATCATCGGCATGATC ((((((....)))))) label 1

Tm under 50 °C? Item: CTGGTGAAAACCAG (((((....))))) label 0

Tm under 50 °C? Item: GATCCTTCCGAGGATC ((((((....)))))) label 0

Tm under 50 °C? Item: GGGGTACGAAAGTATCCC (((.(((....))).))) label 0

Tm under 50 °C? Item: GAATAGGGAAACCTGTTC (((.(((....))).))) label 1

Tm under 50 °C? Item: GGGAATCCGAAAGGACCC (((..(((....)))))) label 1

Tm under 50 °C? Item: GCGGATGCCCGC ((((....)))) label 0

Tm under 50 °C? Item: GATCGTACGAACGATC ((((((....)))))) label 0

Tm under 50 °C? Item: TCTCTGAAAAGAGA (((((....))))) label 1

Tm under 50 °C? Item: GCTACCGAAAGGTTGAGC ((((((....)))..))) label 1

Tm under 50 °C? Item: GTTGGGGCGAAAGCCAAC (((..(((....)))))) label 1

Tm under 50 °C? Item: GATCTCATCCGAGATC ((((((....)))))) label 0

Tm under 50 °C? Item: GTTAGCCGAAAGGCCAAC (((.(((....))).))) label 1

Tm under 50 °C? Item: GCCATGCGAAAGCTGGGC (((..((....))..))) label 0

Tm under 50 °C? Item: GGCGTGCGAAAGCAGCC (((.(((....)))))) label 0

Tm under 50 °C? Item: GTCATGGAAACATGAC ((((((....)))))) label 0

Tm under 50 °C? Item: GGAATGGGAAACCATCCC ((.((((....)))).)) label 1

Tm under 50 °C? Item: GGCCCCGGAAACGAGGCC ((((.((....)).)))) label 0

Tm under 50 °C? Item: GGCCTAGGAAACTAGGTC (.(((((....))))).) label 0

Tm under 50 °C? Item: GATCCATCAATGGATC ((((((....)))))) label 0

Tm under 50 °C? Item: GAGGTTGGAAACAACCCC (.(((((....))))).) label 1

Tm under 50 °C? Item: GAGTTGGCGAAAGCCCTC (((..(((....)))))) label 1

Tm under 50 °C? Item: GTTAATCGAAAGATAAC (((.(((....)))))) label 1
